# protocol.notes: clinical
# run.conditions: human, in vivo, plasma half-life (T1/2), range
readout: half-life

> print(dat)
                                   compound    readout          result
1  CN1CCN(C(=O)C2C(C(=O)O)[C@H]3CC[C@@H]2O3)CC1 (stereo partly shown) [LB100]  half-life  1.09 to 1.46 h

---

# protocol.notes: clinical
# run.conditions: human, in vivo, TMAX
readout: Tmax (h)

> print(dat)
                                   compound  result.unit  quantitative.readout
1  CN1CCN(C(=O)C2C(C(=O)O)[C@H]3CC[C@@H]2O3)CC1 (stereo partly shown) [LB100]            h                   2.1

---

# protocol.notes: clinical
# run.conditions: human, in vivo, Tmax, range
readout: Tmax

> print(dat)
                                   molecule  readout          result
1  CN1CCN(C(=O)C2C(C(=O)O)[C@H]3CC[C@@H]2O3)CC1 (stereo partly shown)     Tmax  2.07 to 2.63 h

---

# protocol.notes: clinical
# run.conditions: human, in vivo
readout: Vd

> print(dat)
                                   molecule  readout  result
1  CN1CCN(C(=O)C2C(C(=O)O)[C@H]3CC[C@@H]2O3)CC1 (stereo partly shown)       Vd  21.7 L

---

# protocol.notes: clinical
# Set-up: species or system human
# run.conditions: human, in vivo
readout: concentration at 5.68 h

> print(dat)
                                   molecule     result
1  CN1CCN(C(=O)C2C(C(=O)O)[C@H]3CC[C@@H]2O3)CC1 (stereo partly shown) [LB100]  0.51 ng/g

---

# protocol.notes: clinical
# run.conditions: human, in vivo
readout: clearance (mL/min)

> print(dat)
                                   molecule  result.unit  quantitative.readout
1  CN1CCN(C(=O)C2C(C(=O)O)[C@H]3CC[C@@H]2O3)CC1 (stereo partly shown)       mL/min                   195

---

# protocol.notes: clinical
# run.conditions: human, in vivo, Cmax
readout: Cmax (ng/mL)

> print(dat)
                                   compound  quantitative.readout
1  CN1CCN(C(=O)C2C(C(=O)O)[C@H]3CC[C@@H]2O3)CC1 (stereo partly shown) [LB100]                   146

---

# protocol.notes: clinical
# run.conditions: human, in vivo, Cmax, range
readout: Cmax

> print(dat)
                                   compound           result
1  CN1CCN(C(=O)C2C(C(=O)O)[C@H]3CC[C@@H]2O3)CC1 (stereo partly shown)  95 to 179 ng/mL

---

# protocol.notes: clinical
# run.conditions: human, in vivo, AUCinf
readout: AUC(0-inf) (ng·h/mL)

> print(dat)
                                   compound  quantitative.readout
1  CN1CCN(C(=O)C2C(C(=O)O)[C@H]3CC[C@@H]2O3)CC1 (stereo partly shown)                   414

Origin of values: paper doi:10.1101/2025.08.18.25333496
